# measured_target: M18 aspartyl aminopeptidase (Plasmodium falciparum 3D7)
# experiment: inhibition of malaria M18 aspartyl aminopeptidase – biochemical, QFRET, H-Glu-NHMec substrate, set 1, dose response (AID 602222)
# experimental_setup: recombinant PfM18AAP, H-Glu-NHMec fluorogenic substrate cleavage
outcome_measure: pIC50
Scale for pIC50: -log10 of concentration given in mol/L; no unit attached.

(Q) Entry under review: CN1CCN(CCCc2ccc(O)c(O)c2)CC1 . Reported pIC50?
(A) 4.88

(Q) Entry under review: Oc1ccc(CCNc2c3ccccc3nc3ccccc23)cc1O . Reported pIC50?
(A) 5.37

(Q) Entry under review: Oc1ccc(CCNc2ccnc3ccccc23)cc1O . Reported pIC50?
(A) 5.13

(Q) Entry under review: CCc1ccc(NC(=O)Cc2nc(-c3ccc(O)c(O)c3)cs2)cc1 . Reported pIC50?
(A) 4.78

(Q) Entry under review: Oc1ccc(-c2csc(Nc3ncccn3)n2)cc1O . Reported pIC50?
(A) 5.19

(Q) Entry under review: Oc1ccc(-c2csc(NC3CCCC3)n2)cc1O . Reported pIC50?
(A) 4.88

(Q) Entry under review: CN1CCN(c2nc(-c3ccc(O)c(O)c3)cs2)CC1 . Reported pIC50?
(A) 5.03

(Q) Entry under review: CN1CCN(CCc2ccc(O)c(O)c2)CC1 . Reported pIC50?
(A) 4.57
